So I've got IC50 readings for AKT2 (Homo sapiens), take a look.

Recorded IC50, per entry:
1. CN1C(=O)COc2nc(-c3ccc([C@]4(N)C[C@H](O)C4)cc3)c(-c3ccccc3)cc21 [Example 137] = 100 to 1000 nM
2. NC1(c2ccc(-c3nc4c(cc3-c3ccccc3)-n3c(nnc3-c3ccccc3)CO4)cc2)CCC1 [Example 129] = 1000 to 10000 nM
3. CN1C(=O)COc2nc(-c3ccc(C4(N)CCC4)cc3)c(-c3cccnc3)cc21 [Example 124] = 1000 to 10000 nM
4. CN1C(=O)COc2nc(-c3ccc(CN)cc3)c(-c3ccccc3)cc21 [Example 131] = 100 to 1000 nM
5. CN1c2cc(-c3ccccc3)c(-c3ccc(C4(N)CCC4)cc3)nc2OCS1(=O)=O [Example 73] = 100 to 1000 nM

Query block: Item under review: NC1(c2ccc(-c3nc4c(cc3-c3ccccc3)N(Cc3ccccn3)C(=O)CO4)cc2)CCC1 [Example 56] . Reported IC50?
Result block: 100 to 1000 nM

Query block: For NC1(c2ccc(-c3nc4c(cc3-c3ccccc3)-n3c(nnc3-c3cccnc3)CO4)cc2)CCC1 [Example 122] then?
Result block: 1000 to 10000 nM

Query block: Next molecule: CC(=O)N1CCOc2nc(-c3ccc(C4(N)CCC4)cc3)c(-c3ccccc3)cc21 [Example 41]
Result block: 100 to 1000 nM

Query block: Also need NC(=O)CN1CCOc2nc(-c3ccc(C4(N)CCC4)cc3)c(-c3ccccc3)cc21 [Example 44] , thanks.
Result block: 1000 to 10000 nM

Query block: Input NC1(c2ccc(-c3nc4c(cc3-c3ccccc3)N(c3cccnc3)C(=O)CO4)cc2)CCC1 [Example 75]
Result block: 1000 to 10000 nM

Query block: Now the molecule NC1(c2ccc(-c3nc4c(cc3-c3ccccc3)N(CCO)C(=O)CO4)cc2)CCC1 [Example 68]
Result block: 100 to 1000 nM

Query block: Same thing, different molecule: NC1(c2ccc(-c3nc4c(cc3-c3ccccc3)N(CC(F)F)C(=O)CO4)cc2)CCC1 [Example 85]
Result block: ≤ 100 nM

Query block: Also NC1(c2ccc(-c3nc4c(cc3-c3ccccc3)C(=O)COC4)cc2)CCC1 [Example 127] ?
Result block: > 10000 nM

* * *

pIC50: −log10 of the molar value.
Target or system AKT2 (Homo sapiens, UniProt P31751); recorded quantity pIC50.

Known results for compounds:
1) NC1(c2ccc(-c3nc4c(cc3-c3ccccc3)-n3c(CF)nnc3CO4)cc2)CCC1 = 6.00 to 7.00
2) CCc1nnc2n1-c1cc(-c3ccccc3)c(-c3ccc([C@]4(N)C[C@](C)(O)C4)cc3)nc1OC2 = 6.00 to 7.00
3) CC(C)CN1C(=O)COc2nc(-c3ccc(C4(N)CCC4)cc3)c(-c3ccccc3)cc21 = ≥ 7.00
4) CN(C)CCN1C(=O)COc2nc(-c3ccc(C4(N)CCC4)cc3)c(-c3ccccc3)cc21 = 5.00 to 6.00
5) CCN1CCc2nc(-c3ccc(C4(N)CCC4)cc3)c(-c3ccccc3)cc2C1 = < 5.00
6) NC1(c2ccc(-c3nc4c(cc3-c3ccccc3)/C(=N/O)CCC4)cc2)CCC1 = 5.00 to 6.00
7) NC1(c2ccc(-c3nc4c(cc3-c3ccccc3)N(C3CCCC3)C(=O)CO4)cc2)CCC1 = 6.00 to 7.00
8) NC1(c2ccc(-c3nc4c(cc3-c3ccccc3)NC(=O)C(CCO)O4)cc2)CCC1 (stereo not drawn) = 5.00 to 6.00

Query block: Returns the measured pIC50 for the input compound. Input: CC(C)Cc1nnc2n1-c1cc(-c3ccccc3)c(-c3ccc(C4(N)CCC4)cc3)nc1OC2
Result block: 6.00 to 7.00

Query block: // next record Cn1cc2c(n1)-c1cc(-c3ccccc3)c(-c3ccc(C4(N)CCC4)cc3)nc1CC2
Result block: 5.00 to 6.00

Query block: Same thing, different compound: C[C@H]1Oc2nc(-c3ccc(C4(N)CCC4)cc3)c(-c3ccccc3)cc2N(CC#N)C1=O
Result block: ≥ 7.00

Query block: And what about the compound N#CCN1c2cc(-c3ccccc3)c(-c3ccc(C4(N)CCC4)cc3)nc2OCS1(=O)=O ?
Result block: ≥ 7.00
